measurement-target: human PCSK9 / human LDLR EGFa domain interaction (Homo sapiens)
Sequence (Q8NBP7 153-692): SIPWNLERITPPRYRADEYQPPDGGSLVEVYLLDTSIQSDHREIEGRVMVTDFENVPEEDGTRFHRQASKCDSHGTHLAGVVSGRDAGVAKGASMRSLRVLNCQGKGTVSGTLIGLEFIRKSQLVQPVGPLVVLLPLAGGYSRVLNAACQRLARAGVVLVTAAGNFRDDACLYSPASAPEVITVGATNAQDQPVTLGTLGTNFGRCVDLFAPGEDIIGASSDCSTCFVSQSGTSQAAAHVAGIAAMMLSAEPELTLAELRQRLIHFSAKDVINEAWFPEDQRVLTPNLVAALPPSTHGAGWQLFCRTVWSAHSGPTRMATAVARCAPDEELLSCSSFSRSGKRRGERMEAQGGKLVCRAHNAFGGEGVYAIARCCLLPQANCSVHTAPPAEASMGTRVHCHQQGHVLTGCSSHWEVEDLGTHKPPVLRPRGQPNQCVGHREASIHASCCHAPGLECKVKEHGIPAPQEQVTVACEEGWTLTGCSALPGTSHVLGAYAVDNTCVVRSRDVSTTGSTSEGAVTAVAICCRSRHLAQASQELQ
Sequence (Q8NBP7 31-152 partner limits assumed): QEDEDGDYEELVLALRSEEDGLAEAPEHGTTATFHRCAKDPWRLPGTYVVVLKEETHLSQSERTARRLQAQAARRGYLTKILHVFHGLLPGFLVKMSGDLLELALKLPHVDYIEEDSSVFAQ
procedure-details: TR-FRET assay of inhibition of the PCSK9-LDLR protein-protein interaction
setup-conditions: 20 nM avitag-biotinylated human PCSK9, 20 nM his-tagged human LDLR EGFa domain, 2 hours, room temperature
Description: A time-resolved fluorescence resonance energy (TR-FRET) assay was used to measure inhibition of the PCSK9-LDLR protein-protein interaction. […] Compounds were tested in dose-response and concentrations giving half-maximal inhibition calculated using a 4-parameter fit equation.
Numbered stars: 1 amine (or outer) side, 2 acyl side, 3 side chain; on linkers, the order of the positions; unused ones are H or OH. Bridge positions count the residues as written; N and C are the ends. Square brackets hold non-standard residues; d marks the D form. Peptide text beside a SMILES is read from it. Phe(4-CF3) = N[C@@H](Cc1ccc(C(F)(F)F)cc1)C(=O)O; Trp(5-F) = N[C@@H](Cc1c[nH]c2ccc(F)cc12)C(=O)O; Trp(7-aza) = N[C@@H](Cc1c[nH]c2ncccc12)C(=O)O; 1Nal = N[C@@H](Cc1cccc2ccccc12)C(=O)O; mXylylene = c1cc(C[*:1])cc(C[*:2])c1; Gly(octyl) = CCCCCCCC[C@H](N)C(=O)O; Aad = N[C@@H](CCCC(=O)O)C(=O)O; Chg = N[C@H](C(=O)O)C1CCCCC1; Tle = CC(C)(C)[C@H](N)C(=O)O; αMeV = CC(C)[C@](C)(N)C(=O)O; S5 = C=CCCC[C@](C)(N)C(=O)O; Iva = CC[C@](C)(N)C(=O)O; Ac5c = NC1(C(=O)O)CCCC1; Nva = CCC[C@H](N)C(=O)O; Thp = NC1(C(=O)O)CCOCC1; Aib = CC(C)(N)C(=O)O; Mpa = O=C(O)CCS
# IC50 annotations

| compound | IC50 |
| --- | --- |
| CCC[C@@H]1NC(=O)[C@H](Cc2c[nH]c3ncccc23)NC(=O)[C@H]([C@@H](C)O)NC(=O)[C@H](Cc2c[nH]cn2)NC(=O)[C@H](Cc2ccc(O)cc2)NC(=O)[C@H](C(C)(C)C)NC(=O)CCSCc2cccc(c2)CSC[C@@H](C(N)=O)NC(=O)[C@H]([C@@H](C)O)NC(=O)[C@H](C2CCCCC2)NC(=O)[C@H](Cc2ccc(O)cc2)NC(=O)[C@H](CCC(=O)O)NC1=O [Compound 285] ([Mpa][Tle]YHT[Trp(7-aza)][Nva]EY[Chg]TC-NH2; linker 1-12 via mXylylene) | 100 to 1000 nM |
| CC(=O)N[C@H]1CSCc2cccc(c2)CSC[C@H](C(N)=O)NC(=O)[C@H]([C@@H](C)O)NC(=O)[C@](C)(C(C)C)NC(=O)[C@H](Cc2ccc(O)cc2)NC(=O)[C@H](C)NC(=O)C2(CCCC2)NC(=O)[C@H](Cc2c[nH]c3ncccc23)NC(=O)[C@H]([C@@H](C)O)NC(=O)[C@@H]2CCCN2C(=O)[C@H](Cc2ccc(O)cc2)NC(=O)[C@H](C(C)(C)C)NC1=O [Compound 186] (Ac-C[Tle]YPT[Trp(7-aza)][Ac5c]AY[αMeV]T[dC]-NH2; linker 1-12 via mXylylene) | 1 to 100 nM |
| CCCCCCCC[C@@H]1NC(=O)[C@H](Cc2c[nH]c3ncccc23)NC(=O)[C@H]([C@@H](C)O)NC(=O)[C@@H]2CCCN2C(=O)[C@H](Cc2ccc(O)cc2)NC(=O)[C@H](C(C)(C)C)NC(=O)CCSCc2cccc(c2)CSC[C@@H](C(N)=O)NC(=O)[C@H]([C@@H](C)O)NC(=O)[C@H](CCC)NC(=O)[C@H](Cc2ccc(O)cc2)NC(=O)[C@H](C)NC1=O [Compound 169] ([Mpa][Tle]YPT[Trp(7-aza)][Gly(octyl)]AY[Nva]TC-NH2; linker 1-12 via mXylylene) | 100 to 1000 nM |
| C=CCCC[C@]1(C)NC(=O)[C@H](CCC)NC(=O)[C@H](Cc2ccc(O)cc2)NC(=O)[C@H](C)NC(=O)C(C)(C)NC(=O)[C@H](Cc2c[nH]c3ncccc23)NC(=O)[C@H]([C@@H](C)O)NC(=O)[C@@H]2CCCN2C(=O)[C@H](Cc2ccc(O)cc2)NC(=O)[C@H](C(C)(C)C)NC(=O)[C@@H](NC(C)=O)CCCC(=O)NCCCC[C@@H](C(N)=O)NC1=O [Compound 053] (Ac-[Aad][Tle]YPT[Trp(7-aza)][Aib]AY[Nva][S5]K-NH2; lactam 1-12) | 21000 to 50000 nM |
| CCC[C@@H]1NC(=O)[C@H](Cc2c[nH]c3ncccc23)NC(=O)[C@H]([C@@H](C)O)NC(=O)[C@H](Cc2c[nH]cn2)NC(=O)[C@H](Cc2ccc(O)cc2)NC(=O)[C@H](C(C)(C)C)NC(=O)CCSCc2cccc(c2)CSC[C@@H](C(N)=O)NC(=O)[C@H]([C@@H](C)O)NC(=O)[C@H](CCC)NC(=O)[C@H](Cc2c[nH]c3ccc(F)cc23)NC(=O)[C@H](CCC(=O)O)NC1=O [Compound 261] ([Mpa][Tle]YHT[Trp(7-aza)][Nva]E[Trp(5-F)][Nva]TC-NH2; linker 1-12 via mXylylene) | 1000 to 21000 nM |
| CC[C@]1(C)NC(=O)[C@H](Cc2c[nH]c3ncccc23)NC(=O)[C@H]([C@@H](C)O)NC(=O)[C@@H]2CCCN2C(=O)[C@H](Cc2ccc(O)cc2)NC(=O)[C@H](C(C)(C)C)NC(=O)[C@@H](NC(C)=O)CSCc2cccc(c2)CSC[C@H](C(N)=O)NC(=O)[C@H]([C@@H](C)O)NC(=O)[C@](C)(C(C)C)NC(=O)[C@H](Cc2ccc(O)cc2)NC(=O)[C@H](C)NC1=O [Compound 193] (Ac-C[Tle]YPT[Trp(7-aza)][Iva]AY[αMeV]T[dC]-NH2; linker 1-12 via mXylylene) | 1 to 100 nM |
| CCC[C@@H]1NC(=O)[C@H](Cc2ccc(O)cc2)NC(=O)[C@H](C)NC(=O)[C@@](C)(NC(=O)[C@H](Cc2cccc3ccccc23)NC(=O)[C@@H](NC(=O)[C@@H]2CCCN2C(=O)[C@H](Cc2ccc(O)cc2)NC(=O)[C@@H](NC(C)=O)C(C)(C)C)[C@@H](C)O)CCC/C=C/CCC[C@@](C)(C(N)=O)NC1=O [Compound 078] (Ac-[Tle]YPT[1Nal][S5]AY[Nva][S5]-NH2; staple (E) 6-10) | 1000 to 21000 nM |
| CCC[C@@H]1NC(=O)[C@H](Cc2c[nH]c3ncccc23)NC(=O)[C@H]([C@@H](C)O)NC(=O)[C@H](Cc2c[nH]cn2)NC(=O)[C@H](Cc2ccc(O)cc2)NC(=O)[C@H](C(C)(C)C)NC(=O)CCSCc2cccc(c2)CSC[C@@H](C(N)=O)NC(=O)[C@H]([C@@H](C)O)NC(=O)[C@H](CCC)NC(=O)[C@H](Cc2ccc(C(F)(F)F)cc2)NC(=O)[C@H](CCC(=O)O)NC1=O [Compound 260] ([Mpa][Tle]YHT[Trp(7-aza)][Nva]E[Phe(4-CF3)][Nva]TC-NH2; linker 1-12 via mXylylene) | 1000 to 21000 nM |
| CCC[C@@H]1NC(=O)[C@H](Cc2ccc(O)cc2)NC(=O)[C@H](CCC(=O)O)NC(=O)C2(CCOCC2)NC(=O)[C@H](Cc2c[nH]c3ncccc23)NC(=O)[C@H]([C@@H](C)O)NC(=O)[C@H](Cc2c[nH]cn2)NC(=O)[C@H](Cc2ccc(O)cc2)NC(=O)[C@H](C(C)(C)C)NC(=O)CCSCc2cccc(c2)CSC[C@@H](C(N)=O)NC(=O)[C@H]([C@@H](C)O)NC1=O [Compound 300] ([Mpa][Tle]YHT[Trp(7-aza)][Thp]EY[Nva]TC-NH2; linker 1-12 via mXylylene) | 100 to 1000 nM |
